Source listed as paper PMC10818931.

Test system: CYP1A2
Assay: CYP inhibition (direct and metabolism-dependent) in human hepatic microsomes
Format: in vitro ADME
Details: human, microsomes, pH 7.4; CYP1A2; EBO 0.03–100 μM, M3 1–1000 µM; read-out: as an Inhibitor IC50

>  <MOLECULE>
NC[C@H]1OB(O)c2c(OCCC(=O)O)cccc21

>  <IC50>
> 1000 µM

$$$$

----------
Test: Apparent permeability through Caco-2 cell monolayers
Conditions: human, Caco-2
ENDPOINT_NAME: Papp A→B

>  <COMPOUND>
NC[C@H]1OB(O)c2c(OCCCO)cccc21 [EBO, Epetraborole]

>  <ENDPOINT_NAME>
Papp A→B

>  <RESULT>
≤ 0.31 ×10⁻⁶ cm/s

$$$$
